Test system: main crop (wheat, corn, rice, soybean, cotton, oilseed, millet and sorghum)
assay: Post-emergence test experiment, main crops (Table 2)
Format: in vivo
Set-up: key: Level 10: completely dead; Level 9: above 90% growth inhibition rate; Level 8: above 80% growth inhibition rate; Level 7: above 70% growth inhibition rate; Level 6: above 60% growth inhibition rate; Level 5: above 50% growth inhibition rate; Level 4: above 30% growth inhibition rate; Level 3: above 20% growth inhibition rate; Level 2: above 10% growth inhibition rate; Level 1: above 1-10% growth inhibition rate; Level 0: no effect
experimental.context: 120 g/ha, 3 weeks after spraying, greenhouse
effect on crop, corn (level) by entry:
measured.metric: effect on crop, corn (level)

> print(dat)
                                   molecule               measured.metric  result.number
1  CCc1nn(CC)c(OC(=O)c2cn(C)nc2C)c1C(=O)c1ccc(S(C)(=O)=O)c(Cn2nc(C)cc2C)c1Cl [Compound 95]  effect on crop, corn (level)              0
2  Cc1ccn(Cc2c(S(C)(=O)=O)ccc(C(=O)c3c(C)nn(C)c3OC(=O)c3cnn(C)c3)c2Cl)n1 [Compound 15]  effect on crop, corn (level)              0
3  Cc1cnn(Cc2c(S(C)(=O)=O)ccc(C(=O)c3c(C)nn(C)c3OC(=O)c3cn(C)nc3C)c2Cl)c1 [Compound 04]  effect on crop, corn (level)              0

---

weed control effect, Digitaria sanguinalis (level) by entry:
Test system: Monocotyledonous and dicotyledonous weed
assay: Post-emergence test experiment, weed control effect (Table 2)
Type: in vivo
Parameters: key: Level 10: completely dead; Level 9: above 90% growth inhibition rate; Level 8: above 80% growth inhibition rate; Level 7: above 70% growth inhibition rate; Level 6: above 60% growth inhibition rate; Level 5: above 50% growth inhibition rate; Level 4: above 30% growth inhibition rate; Level 3: above 20% growth inhibition rate; Level 2: above 10% growth inhibition rate; Level 1: above 1-10% growth inhibition rate; Level 0: no effect
experimental.context: 30 g/ha, 3 weeks after spraying, greenhouse
measured.metric: weed control effect, Digitaria sanguinalis (level)

> print(dat)
                                   molecule  result
1  CCOCc1c(S(C)(=O)=O)ccc(C(=O)c2c(CC)nn(C)c2OC(=O)c2cn(C)nc2C)c1Cl [Compound 31]      10
2  CCOCc1c(S(C)(=O)=O)ccc(C(=O)c2c(C3CC3)nn(C)c2OC(=O)c2cn(C)nc2C)c1Cl [Compound 46]      10
3  Cc1nn(C)cc1C(=O)Oc1c(C(=O)c2ccc(S(C)(=O)=O)c(COCC(F)(F)F)c2Cl)cnn1C [Compound 44]      10

---

Test system: Monocotyledonous and dicotyledonous weed
assay: Post-emergence test experiment, weed control effect (Table 2)
Format: in vivo
Set-up: key: Level 10: completely dead; Level 9: above 90% growth inhibition rate; Level 8: above 80% growth inhibition rate; Level 7: above 70% growth inhibition rate; Level 6: above 60% growth inhibition rate; Level 5: above 50% growth inhibition rate; Level 4: above 30% growth inhibition rate; Level 3: above 20% growth inhibition rate; Level 2: above 10% growth inhibition rate; Level 1: above 1-10% growth inhibition rate; Level 0: no effect
experimental.context: 30 g/ha, 3 weeks after spraying, greenhouse
weed control effect, Setaria viridis (level) by entry:
measured.metric: weed control effect, Setaria viridis (level)

> print(dat)
                               query.smiles  result
1  Cc1nn(C)cc1C(=O)Oc1c(C(=O)c2ccc(S(C)(=O)=O)c(Cn3cccn3)c2C)cnn1C      10
2  Cc1c(C(=O)c2c(C3CC3)nn(C)c2OC(=O)c2cnn(C)c2)ccc(S(C)(=O)=O)c1COCC(F)(F)F      10
